Test system: WHIM30 (cells of a triple-negative basal-like breast cancer xenograft);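 also: PDX cells carrying CMV promoter-driven luciferase, viability read as total photon flux per second by IVIS imaging following D-luciferin, vehicle control 0.1% DMSO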
Experiment: cell viability (% of vehicle); higher = less cytotoxic
Settings: 10 µM; 72 h
property: cell viability
One number for each entry.

In the examples that follow, each entry is paired with its recorded cell viability.
compound	number
CCCCOc1cc(C(=O)NCCN(CC)CC)c2ccccc2n1	89
COC(=O)C1=C(C)NC(C)=C(C(=O)OCC(C)C)C1c1ccccc1[N+](=O)[O-] (stereo unspecified)	123
O=S(=O)([O-])CCSSCCS(=O)(=O)[O-].[Na+].[Na+]	125
CC(C)NCC(O)c1ccc(O)c(O)c1.Cl (stereo unspecified) [Isoprenaline HCl]	113
O=C(C1CCCCC1)N1CC(=O)N2CCc3ccccc3C2C1 (stereo unspecified)	114
CCC(=O)OCC(=O)C1(OC(=O)CC)C(C)CC2C3CCC4=CC(=O)C=CC4(C)C3(Cl)C(O)CC21C (stereo unspecified) [Beclomethasone dipropionate]	123
CNCC(O)c1cccc(O)c1.Cl (stereo unspecified) [Phenylephrine HCl]	109
COc1cc(C(=O)O)ccc1NC(=O)C1NC(CC(C)(C)C)C(C#N)(c2ccc(Cl)cc2F)C1c1cccc(Cl)c1F (stereo unspecified)	102

Give me cell viability for each of these compounds, listed below.
1. CCOc1ccc2ccccc2c1C(=O)NC1C(=O)N2C1SC(C)(C)C2C(=O)[O-].O.[Na+] (stereo unspecified) [Nafcillin Sodium]
2. COc1cc2nc(N3CCN(C(=O)C4CCCO4)CC3)nc(N)c2cc1OC.Cl.O.O (stereo unspecified) [Terazosin HCl]

1. 140
2. 114
